Test system: Huh-7
Assay: Cytotoxicity (CC50) Huh-7
Details: read-out: Cytotoxicity (CC50 uM) Huh-7; Huh-7
reportedProperty: CC50

C[C@H](NP(=O)(O)OC[C@H]1O[C@@H](n2ccc(=O)[nH]c2=S)[C@](C)(O)C1O)C(=O)O (stereo partly drawn): > 400 µM
C[C@@]1(O)C(O)[C@@H](CO)O[C@H]1n1ccc(=O)[nH]c1=S (stereo partly drawn): > 100 µM
CC(C)OC(=O)[C@H](C)N[P@](=O)(OC[C@H]1O[C@@H](n2ccc(=O)[nH]c2=O)[C@](C)(F)C1O)Oc1ccccc1 (stereo partly drawn) [drawing 373]: 279 µM
CC(C)OC(=O)[C@H](C)NP(=O)(OC[C@@]1(N=[N+]=[N-])O[C@@H](n2ccc(=S)[nH]c2=O)[C@@H](O)C1O)Oc1ccccc1 (stereo partly drawn): > 400 µM

Could I get CC50 for every one of these entries?
1. CC(C)OC(=O)[C@H](C)NP(=O)(OC[C@H]1O[C@@H](n2ccc(=O)[nH]c2=S)[C@](C)(O)C1O)Oc1ccccc1 (stereo partly drawn) [drawing 366]
2. C[C@@]1(O)C(O)[C@@H](COP(=O)(O)O)O[C@H]1n1ccc(=O)[nH]c1=S (stereo partly drawn)
3. CC(C)OC(=O)[C@H](C)N[P@@](=O)(OC[C@H]1O[C@@H](n2ccc(=O)[nH]c2=O)[C@](C)(F)C1O)Oc1ccccc1 (stereo partly drawn)
4. CC(C)OC(=O)[C@H](C)NP(=O)(OC[C@H]1O[C@@H](n2ccc(=O)[nH]c2=[Se])[C@](C)(O)C1O)Oc1ccccc1 (stereo partly drawn)
5. CC(C)OC(=O)[C@H](C)N[P@@](=O)(OC[C@H]1O[C@@H](n2ccc(=O)[nH]c2=S)[C@](C)(O)C1O)Oc1ccccc1 (stereo partly drawn)

Result:
1. > 400 µM
2. > 400 µM
3. > 400 µM
4. > 100 µM
5. > 400 µM

Values compiled from patent US12414961B2.
